Recorded relative growth for the following molecules
Tested on: Argrobacterium 1 (Agrobacterium sp.)
Test: relative growth (AUC of 72 h growth curve relative to DMSO control, dAUC) (ratio); higher = more growth (less inhibition), active = hit call of the paper
Details: 20 µM
experimental_endpoint: relative growth

>>> reported_measurement("CC(C)NC(=O)N1CC(=O)N(c2cc(Cl)cc(Cl)c2)C1=O")
"0.984 (inactive)"
>>> reported_measurement("COP(=S)(OC)Oc1ccc(SC)c(C)c1")
"1.05 (inactive)"
>>> reported_measurement("CNC(=O)CSP(=S)(OC)OC")
"1.02 (inactive)"
>>> reported_measurement("C[C@@H]1[C@@H](c2ccc(Cl)cc2)SC(=O)N1C(=O)NC1CCCCC1")
"1.04 (inactive)"
>>> reported_measurement("O=C(O)COc1ccc(Cl)cc1Cl")
"0.944 (inactive)"
>>> reported_measurement("CCC(=O)Nc1ccc(Cl)c(Cl)c1")
"0.923 (inactive)"
>>> reported_measurement("CC(C)N(C(=O)COc1nnc(C(F)(F)F)s1)c1ccc(F)cc1")
"1.02 (inactive)"
>>> reported_measurement("CNC(=O)c1cc(C#N)cc(C)c1NC(=O)c1cc(Br)nn1-c1ncccc1Cl")
"1.03 (inactive)"
>>> reported_measurement("CC(C)(C)[C@@H](O)[C@H](Oc1ccc(Cl)cc1)n1cncn1")
"1.03 (inactive)"
>>> reported_measurement("O=C(O)CNCP(=O)(O)O")
"1.01 (inactive)"
>>> reported_measurement("CS(=O)(=O)c1ccc(C(=O)C2C(=O)CCCC2=O)c([N+](=O)[O-])c1")
"0.959 (inactive)"
>>> reported_measurement("CCCCc1c(C)nc(NCC)nc1OS(=O)(=O)N(C)C")
"1.03 (inactive)"
>>> reported_measurement("CCOc1ccc(C(C)(C)COCc2cccc(Oc3ccccc3)c2)cc1")
"1.04 (inactive)"
>>> reported_measurement("CN1COCN(Cc2cnc(Cl)s2)/C1=N\\[N+](=O)[O-]")
"1.04 (inactive)"
>>> reported_measurement("N#Cc1c(Cl)c(Cl)c(Cl)c(C#N)c1Cl")
"0.958 (inactive)"
>>> reported_measurement("CCCN(CCC)C(=O)SCc1ccccc1")
"1.04 (inactive)"
>>> reported_measurement("O=C1C=C(N(Cc2ccc(Cl)nc2)CC(F)F)CO1")
"0.974 (inactive)"
>>> reported_measurement("C/C(=N\\C#N)N(C)Cc1ccc(Cl)nc1")
"0.965 (inactive)"
>>> reported_measurement("CCc1cnc(C2=NC(C)(C(C)C)C(=O)N2)c(C(=O)O)c1 (centres undefined)")
"0.95 (inactive)"
>>> reported_measurement("CCNc1nc(Cl)nc(NC(C)C)n1")
"1.01 (inactive)"
>>> reported_measurement("Cc1nnc(-c2ccccc2)c(=O)n1N")
"1.03 (inactive)"
>>> reported_measurement("COc1ccc(C(=CC(=O)N2CCOCC2)c2ccc(Cl)cc2)cc1OC (mixture of isomers)")
"1.03 (inactive)"
>>> reported_measurement("CC(C)N(C)S(=O)(=O)NC(=O)c1cc(-n2c(=O)cc(C(F)(F)F)n(C)c2=O)c(F)cc1Cl")
"1.03 (inactive)"
>>> reported_measurement("CCSC(C)CC1CC(=O)C(/C(CC)=N/OC/C=C/Cl)=C(O)C1 (mixture of isomers)")
"1.01 (inactive)"
>>> reported_measurement("COC(=O)Nc1nc2ccccc2[nH]1")
"0.992 (inactive)"
>>> reported_measurement("CCC(CC)Nc1c([N+](=O)[O-])cc(C)c(C)c1[N+](=O)[O-]")
"0.993 (inactive)"
>>> reported_measurement("O=C1C2(Cl)C3(Cl)C4(Cl)C(Cl)(Cl)C5(Cl)C3(Cl)C1(Cl)C5(Cl)C24Cl (centres undefined)")
"1.03 (inactive)"
>>> reported_measurement("CCOCN(C(=O)CCl)c1c(C)cccc1CC")
"1.02 (inactive)"
>>> reported_measurement("CCc1cc(C)cc(CC)c1-c1c(OC(=O)C(C)(C)C)n2n(c1=O)CCOCC2")
"0.957 (inactive)"
>>> reported_measurement("CCOP(=S)(OCC)Oc1nc(Cl)c(Cl)cc1Cl")
"0.979 (inactive)"
>>> reported_measurement("CCCCC(C#N)(Cn1cncn1)c1ccc(Cl)cc1 (centres undefined)")
"1.07 (inactive)"
>>> reported_measurement("Cc1cc(C(F)(C(F)(F)F)C(F)(F)F)ccc1NC(=O)c1cccc(I)c1C(=O)NC(C)(C)CS(C)(=O)=O")
"0.695 (active)"
>>> reported_measurement("COCC(=O)N(c1c(C)cccc1C)C(C)C(=O)OC (centres undefined)")
"1.01 (inactive)"
>>> reported_measurement("O=C1c2ccccc2C(=O)N1SC(Cl)(Cl)Cl")
"1.04 (inactive)"
>>> reported_measurement("CCOc1cc(Oc2ccc(C(F)(F)F)cc2Cl)ccc1[N+](=O)[O-]")
"1.01 (inactive)"
>>> reported_measurement("N#Cc1c[nH]cc1-c1cccc2c1OC(F)(F)O2")
"0.99 (inactive)"
>>> reported_measurement("N#Cc1cc(Br)c(O)c(Br)c1")
"1.03 (inactive)"
>>> reported_measurement("N#Cc1nn(-c2c(Cl)cc(C(F)(F)F)cc2Cl)c(N)c1[S+]([O-])C(F)(F)F (centres undefined)")
"1.01 (inactive)"
>>> reported_measurement("Cc1ccc(/N=C/N(C)/C=N/c2ccc(C)cc2C)c(C)c1")
"0.984 (inactive)"
>>> reported_measurement("CC(C)(C)C(O)(CCc1ccc(Cl)cc1)Cn1cncn1 (centres undefined)")
"0.949 (inactive)"
>>> reported_measurement("CCCN(CCOc1c(Cl)cc(Cl)cc1Cl)C(=O)n1ccnc1")
"1.01 (inactive)"
>>> reported_measurement("CCc1nn(C)c(C(=O)NCc2ccc(Oc3ccc(C)cc3)cc2)c1Cl")
"1.02 (inactive)"
>>> reported_measurement("COc1cccc(C(=O)NN(C(=O)c2cc(C)cc(C)c2)C(C)(C)C)c1C")
"0.982 (inactive)"
>>> reported_measurement("CCOP(=S)(OCC)Oc1cc(C)nc(C(C)C)n1")
"1.16 (inactive)"

The values you see were collected from the supplement of paper PMC12067926.
